Sourced from patent US20050234065A1

target.under.test: DPP-IV (Homo sapiens, UniProt P27487)
Construct: purchased Enzyme Systems Products SPE-01
Sequence (P27487 whole entry, species assumed): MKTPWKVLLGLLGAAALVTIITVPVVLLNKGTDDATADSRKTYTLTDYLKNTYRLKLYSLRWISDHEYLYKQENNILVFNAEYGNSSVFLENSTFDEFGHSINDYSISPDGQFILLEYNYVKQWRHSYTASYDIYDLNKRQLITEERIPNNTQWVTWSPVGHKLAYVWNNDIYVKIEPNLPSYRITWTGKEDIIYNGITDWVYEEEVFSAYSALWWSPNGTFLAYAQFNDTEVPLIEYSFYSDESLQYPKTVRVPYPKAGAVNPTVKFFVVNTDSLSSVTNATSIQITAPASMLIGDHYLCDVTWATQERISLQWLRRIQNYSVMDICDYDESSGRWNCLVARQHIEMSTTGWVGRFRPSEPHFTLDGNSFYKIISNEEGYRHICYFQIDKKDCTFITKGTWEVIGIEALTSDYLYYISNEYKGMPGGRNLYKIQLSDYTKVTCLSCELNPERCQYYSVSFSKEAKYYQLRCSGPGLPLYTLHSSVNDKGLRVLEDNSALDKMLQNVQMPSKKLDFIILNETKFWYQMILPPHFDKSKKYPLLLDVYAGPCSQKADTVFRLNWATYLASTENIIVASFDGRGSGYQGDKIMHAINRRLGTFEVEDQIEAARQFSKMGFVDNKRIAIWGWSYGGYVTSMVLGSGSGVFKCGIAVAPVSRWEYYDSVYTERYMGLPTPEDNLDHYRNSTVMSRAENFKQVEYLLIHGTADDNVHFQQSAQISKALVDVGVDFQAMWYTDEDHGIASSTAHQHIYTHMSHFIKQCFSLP
assay.method.text: In vitro assay for dipeptidyl peptidase inhibition
Assay type: biochemical
assay.context: hydrochloride salts; Gly-Pro-4-methoxy B naphthylamide substrate; overnight at 37° C.; read-out: IC50 (concentration of test compound required for 50% inhibition)

>  <compound>
N[C@H](C(=O)N1CCCC1)[C@H]1CC[C@H](NC(=O)C[C@H]2C(=O)OCN2C(=O)OCc2ccccc2)CC1 [Example 13]

>  <IC50>
≤ 100 nM

$$$$
>  <compound>
N[C@H](C(=O)N1CCCC1)[C@H]1CC[C@H](N2C(=O)c3cccnc3C2=O)CC1 [Example 24]

>  <IC50>
≤ 100 nM

$$$$
>  <compound>
N[C@H](C(=O)N1CCCC1)[C@H]1CC[C@H](N2C(=O)c3nccnc3C2=O)CC1 [Example 22]

>  <IC50>
≤ 100 nM

$$$$
>  <compound>
N[C@H](C(=O)N1CCCC1)[C@H]1CC[C@H](NC(=O)[C@@H]2C[C@@H](O)CN2C(=O)NCc2ccccc2)CC1 [Example 26]

>  <IC50>
≤ 100 nM

$$$$
>  <compound>
CN(C(=O)OCc1ccccc1)C(C)(C)C(=O)N[C@H]1CC[C@H]([C@H](N)C(=O)N2CCCC2)CC1 [Example 17]

>  <IC50>
100 to 500 nM

$$$$
>  <compound>
N[C@H](C(=O)N1CCCC1)[C@H]1CC[C@H](NC(=O)[C@@H]2CCC(=O)N2C(=O)OCc2ccccc2)CC1 [Example 14]

>  <IC50>
100 to 500 nM

$$$$
>  <compound>
C#Cc1coc2cnc(C(=O)N[C@H]3CC[C@H]([C@H](N)C(=O)N4CCC[C@H]4C#N)CC3)cc12 [Example 62]

>  <IC50>
≤ 100 nM

$$$$
